target_or_system: Avi-KRAS G12V (1-169) GppNHp/RAF1 RBD-3xFLAG (52-151) (Homo sapiens, UniProt P01116, G12V)
Construct: Avi-KRAS G12V (1-169)
Sequence (P01116 1-169 isoform P01116-2 G12V): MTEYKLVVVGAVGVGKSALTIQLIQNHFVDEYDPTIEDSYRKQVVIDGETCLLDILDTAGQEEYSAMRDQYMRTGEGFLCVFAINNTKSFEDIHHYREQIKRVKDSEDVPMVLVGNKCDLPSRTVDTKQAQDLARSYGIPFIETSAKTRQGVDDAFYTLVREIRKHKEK
assay_name: Raf1-KRAS G12V-GppNHP disruption HTRF assay (Biological Example 1)
Type: binding
condition_info: KRAS G12V, GppNHp-loaded; class symbols
outcome_measure: IC50

| molecule | IC50 |
| --- | --- |
| CCN(c1nc(OCC23CCCN2CC(F)C3)nc2c(F)c(-c3ccc(F)c4sc(N)c(C#N)c34)c(C(F)(F)F)cc12)C1CC(C)N(C(=O)C2CC2(F)F)C1 (centres unmarked) | < 100 nM |

QUERY: In one line, give reported IC50 of the entry CC(=O)N1CC[C@H](N(c2nc(OC[C@@]34CCCN3C[C@H](F)C4)nc3c(F)c(-c4ccc(F)c5sc(N)c(C#N)c45)c(C(F)(F)F)cc23)C2CC2)C1 (atropisomer, axis not shown) .
RESULT: 100 to 1000 nM

QUERY: In one line, give reported IC50 of the entry CCN(c1nc(OC[C@@]23CCCN2C[C@H](F)C3)nc2c(F)c(-c3ccc(F)c4sc(N)c(C#N)c34)c(C(F)(F)F)cc12)[C@H]1CCN(C(=O)c2ncc(C)o2)C1 (atropisomer, axis not shown) .
RESULT: 100 to 1000 nM

QUERY: In one line, give reported IC50 of the entry CCN(c1nc(OC[C@@]23CCCN2C[C@H](F)C3)nc2c(F)c(-c3ccc(F)c4sc(N)c(C#N)c34)c(C(F)(F)F)cc12)[C@H]1CCN(C(C)=O)[C@@H]1C (atropisomer, axis not shown) .
RESULT: < 100 nM

QUERY: In one line, give reported IC50 of the entry CCN(c1nc(OC[C@@]23CCCN2C[C@H](F)C3)nc2c(F)c(-c3ccc(F)c4sc(N)c(C#N)c34)c(C(F)(F)F)cc12)[C@H]1CCN(C(=O)[C@H]2C[C@H]2F)C1 (atropisomer, axis not shown) .
RESULT: < 100 nM

###

Measured pIC50, listed per entry for reference.
target_or_system: Avi-KRAS G12D (1-169) GppNHp/RAF1 RBD-3xFLAG (52-151) (Homo sapiens, UniProt P01116, G12D)
Construct: Avi-KRAS G12D (1-169)
Sequence (P01116 1-169 isoform P01116-2 G12D): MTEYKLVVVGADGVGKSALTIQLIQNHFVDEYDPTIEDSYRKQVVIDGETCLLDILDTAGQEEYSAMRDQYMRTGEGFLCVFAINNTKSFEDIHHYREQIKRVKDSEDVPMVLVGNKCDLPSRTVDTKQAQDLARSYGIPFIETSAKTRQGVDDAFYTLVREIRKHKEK
assay_name: Raf1-KRAS G12D-GppNHP disruption HTRF assay (Biological Example 1)
Assay type: binding
condition_info: KRAS G12D-GppNHp/RAF1 RBD HTRF
pIC50: −log10 of the molar value.

QUERY: With Avi-KRAS G12D (1-169) GppNHp/RAF1 RBD-3xFLAG (52-151) (Homo sapiens, UniProt P01116, G12D) as the test system, provide measured pIC50 for this compound: C[C@H]1[C@H](N(C)c2nc(OC[C@@]34CCCN3C[C@H](F)C4)nc3c(F)c(-c4ccc(F)c5sc(N)c(C#N)c45)c(C(F)(F)F)cc23)CCN1C(=O)C1CC1
RESULT: 6.00 to 7.00

###

target_or_system: Avi-KRAS G12V (1-169) GppNHp/RAF1 RBD-3xFLAG (52-151) (Homo sapiens, UniProt P01116, G12V)
Construct: Avi-KRAS G12V (1-169)
assay_name: Raf1-KRAS G12V-GppNHP disruption HTRF assay (Biological Example 1)
Type: binding
condition_info: KRAS G12V, GppNHp-loaded; Table 11
outcome_measure: IC50

Example results:
| compound | IC50 |
| --- | --- |
| CC(=O)N1C[C@@H](N(C)c2nc(OC[C@@]34CCCN3C[C@H](F)C4)nc3c(F)c(-c4ccc(F)c5sc(N)c(C#N)c45)c(C(F)(F)F)cc23)C[C@H]1CO | 100 to 1000 nM |
| CC(=O)N1C[C@@H]2CCN(c3nc(OC[C@@]45CCCN4C[C@H](F)C5)nc4c(F)c(-c5ccc(F)c6sc(N)c(C#N)c56)c(C(F)(F)F)cc34)[C@@H]2C1 | 1000 to 10000 nM |
| Nc1nc2c(-c3c(C(F)(F)F)cc4c(N5CCC(CO)CC5)nc(OCC56CCCN5CCC6)nc4c3F)ccc(F)c2s1 | 1000 to 10000 nM |
| Nc1nc2c(-c3c(C(F)(F)F)cc4c(N5CCC(CO)C5)nc(OCC56CCCN5CCC6)nc4c3F)ccc(F)c2s1 (centres unmarked) | > 10000 nM |
| COC[C@@H]1[C@H](N(C)c2nc(OC[C@@]34CCCN3C[C@H](F)C4)nc3c(F)c(-c4ccc(F)c5sc(N)c(C#N)c45)c(C(F)(F)F)cc23)CCN1C(C)=O | 100 to 1000 nM |
| CC(=O)N(C)CCN(C)c1nc(OC[C@@]23CCCN2C[C@H](F)C3)nc2c(F)c(-c3ccc(F)c4sc(N)c(C#N)c34)c(C(F)(F)F)cc12 | 100 to 1000 nM |
| CCC(=O)N1C2CCC1CN(c1nc(OC[C@@]34CCCN3C[C@H](F)C4)nc3c(F)c(-c4ccc(F)c5sc(N)nc45)c(C(F)(F)F)cc13)C2 | > 10000 nM |
| CN(c1nc(OC[C@@]23CCCN2C[C@H](F)C3)nc2c(F)c(-c3ccc(F)c4sc(N)c(C#N)c34)c(C(F)(F)F)cc12)[C@@H]1C[C@H](O)[C@H]1CC#N | 100 to 1000 nM |

QUERY: In one line, give reported IC50 of the entry CN(c1nc(OC[C@@]23CCCN2C[C@H](F)C3)nc2c(F)c(-c3ccc(F)c4sc(N)c(C#N)c34)ccc12)[C@H]1C[C@@H](O)C1 .
RESULT: 1000 to 10000 nM

QUERY: In one line, give reported IC50 of the entry CN(c1nc(OC[C@@]23CCCN2C[C@H](F)C3)nc2c(F)c(-c3ccc(F)c4scc(C#N)c34)c(C(F)(F)F)cc12)[C@@H]1CCN(C(=O)CC#N)C1 .
RESULT: > 10000 nM

QUERY: In one line, give reported IC50 of the entry CC(=O)N1CC[C@@H](N(C)c2nc(OC[C@@]34CCCN3C[C@H](F)C4)nc3c(F)c(-c4ccc(F)c5sc(N)c(C#N)c45)c(C(F)(F)F)cc23)[C@H]1C (single isomer, unassigned) [Compound 192] .
RESULT: > 10000 nM

###

target_or_system: Avi-KRAS G12R (1-169) GppNHp/RAF1 RBD-3xFLAG (52-151) (Homo sapiens, UniProt P01116, G12R)
Construct: Avi-KRAS G12R (1-169)
Sequence (P01116 1-169 isoform P01116-2 G12R): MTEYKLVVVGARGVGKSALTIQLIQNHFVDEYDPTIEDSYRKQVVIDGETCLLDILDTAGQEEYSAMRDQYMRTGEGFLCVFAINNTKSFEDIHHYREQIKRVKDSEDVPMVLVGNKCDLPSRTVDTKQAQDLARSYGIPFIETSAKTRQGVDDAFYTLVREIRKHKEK
assay_name: Raf1-KRAS G12R-GppNHP disruption HTRF assay (Biological Example 1)
Type: binding
condition_info: KRAS G12R, GppNHp-loaded; class symbols
pIC50: −log10 of the molar value.
outcome_measure: pIC50

| compound | pIC50 |
| --- | --- |
| CCN(c1nc(OC[C@@]23CCCN2C[C@H](F)C3)nc2c(F)c(-c3ccc(F)c4sc(N)c(C#N)c34)c(C(F)(F)F)cc12)[C@H]1CCN(C(=O)[C@H]2CCCO2)C1 (atropisomer, axis not shown) | > 7.00 |

Shifting focus to the compound that follows.
QUERY: With Avi-KRAS G12R (1-169) GppNHp/RAF1 RBD-3xFLAG (52-151) (Homo sapiens, UniProt P01116, G12R) as the test system, provide measured pIC50 for this compound: CCN(c1nc(OC[C@@]23CCCN2C[C@H](F)C3)nc2c(F)c(-c3ccc(F)c4sc(N)c(C#N)c34)c(C(F)(F)F)cc12)[C@H]1CCN(C(=O)N2CC3(CC3)C2)C1 (atropisomer, axis not shown)
RESULT: > 7.00

###

target_or_system: Avi-KRAS G12R (1-169) GppNHp/RAF1 RBD-3xFLAG (52-151) (Homo sapiens, UniProt P01116, G12R)
Construct: Avi-KRAS G12R (1-169)
assay_name: Raf1-KRAS G12R-GppNHP disruption HTRF assay (Biological Example 1)
Assay type: binding
condition_info: KRAS G12R, GppNHp-loaded; class symbols
outcome_measure: IC50

Example results:
| molecule | IC50 |
| --- | --- |
| CCN(c1nc(OC[C@@]23CCCN2C[C@H](F)C3)nc2c(F)c(-c3ccc(F)c4sc(N)c(C#N)c34)c(C(F)(F)F)cc12)[C@H]1CCN(C(=O)c2cnsc2)C1 (atropisomer, axis not shown) | < 100 nM |
| N#Cc1c(N)sc2c(F)ccc(-c3c(C(F)(F)F)cc4c(N5CCn6nc(C(=O)N7CCC7)cc6C5)nc(OCC56CCCN5CC(F)C6)nc4c3F)c12 (stereo not drawn) | 100 to 1000 nM |

Shifting focus to the molecule that follows.
QUERY: With Avi-KRAS G12R (1-169) GppNHp/RAF1 RBD-3xFLAG (52-151) (Homo sapiens, UniProt P01116, G12R) as the test system, provide measured IC50 for this molecule: CCN(c1nc(OC[C@@]23CCCN2C[C@H](F)C3)nc2c(F)c(-c3ccc(F)c4sc(N)c(C#N)c34)c(C(F)(F)F)cc12)[C@H]1C[C@H](C)N(C(=O)[C@@H](C)OC)C1 (atropisomer, axis not shown)
RESULT: 100 to 1000 nM
